Listed here are compounds together with their documented fraction unbound.
- experimentNotes: Protein binding in rat plasma assessed as unbound fraction at 3 mg/kg, iv
- Format: ADME, organism-based
Give the figure only, with no unit attached.

Looking for the measured fraction unbound of "C[C@@H](Cn1c(=O)[nH]/c(=N\c2ccc(Oc3ccccn3)cc2)n(Cc2ccc(Cl)cc2)c1=O)C(=O)O" , can you help?
0.01

I'd like to know its fraction unbound. The compound in question is "C[C@@H](Cn1c(=O)[nH]/c(=N\c2ccc(Oc3ccsn3)cc2)n(Cc2ccc(Cl)cc2)c1=O)C(=O)O"
0.012

# next compound below
Sample "C[C@@H](Cn1c(=O)[nH]/c(=N\c2ccc(Oc3ccnc(F)c3)cc2)n(Cc2ccc(Cl)cc2)c1=O)C(=O)O" — what was its fraction unbound?
0.013

###

- Tested on: Rattus norvegicus
- experimentNotes: Analgesic activity in rat model of partial sciatic nerve ligation-induced neuropathic pain assessed as reversal of allodynia at 3 mg/kg, po measured after 3 hrs relative to control
- Type: functional
metric: Activity (%)
Give your result in % as a bare value.

Observe how each entry below is paired with its result.
Activity lookup needed for "CC(C)Oc1ccc(/N=c2\[nH]c(=O)n(C[C@H](C)C(=O)O)c(=O)n2Cc2ccc(Cl)cc2)cc1" , thanks.
2

Look up Activity: "CC(C)Oc1ccc(Nc2nc(=O)n(CCC(=O)O)c(=O)n2Cc2ccc(Cl)cc2)cc1Cl"
6

Would you kindly share the measured Activity for "Cc1cc(/N=c2\[nH]c(=O)n(C[C@H](C)C(=O)O)c(=O)n2Cc2ccc(Cl)cc2)ccc1OC(C)C" ?
13

Need Activity, item "C[C@@H](Cn1c(=O)[nH]/c(=N\c2ccc(Oc3ccccn3)cc2)n(Cc2ccc(Cl)cc2)c1=O)C(=O)O"
64

Need Activity of "CC(C)Oc1ccc(/N=c2\[nH]c(=O)n(C[C@H](C)C(=O)O)c(=O)n2Cc2ccc(Cl)cc2)cc1F" , thanks.
23

New cases:
Look at this molecule and give its reported Activity. "Cc1ccc(Cn2c(=O)n(C[C@H](C)C(=O)O)c(=O)[nH]/c2=N\c2ccc(OC(C)C)c(Cl)c2)cc1"
3

// Activity lookup, key: "Cc1ccc(Cn2c(=O)n(CCCC(=O)O)c(=O)[nH]/c2=N\c2ccc(OC(C)C)c(Cl)c2)cc1"
20

I have this molecule here, "Cc1ccc(Cn2c(Nc3ccc(OC(C)C)c(Cl)c3)nc(=O)n(CCC(=O)O)c2=O)cc1" , and I need its recorded Activity.
23

Look up Activity for this molecule: "CC(C)Oc1ccc(/N=c2\[nH]c(=O)n(C[C@H](C)C(=O)O)c(=O)n2Cc2ccc(Cl)cc2)cc1Cl"
26

###

Listed here are molecules together with their documented Cp(f).
- experimentNotes: Free plasma concentration in rat plasma at 1 mg/kg administered as cassette dose
- Type: ADME, organism-based
- conditionNotes: in vivo
A number alone suffices; assume nM.

Which Cp(f) value is on record for "C[C@@H](Cn1c(=O)[nH]/c(=N\c2ccc(Oc3ccsn3)cc2)n(Cc2ccc(Cl)cc2)c1=O)C(=O)O" ?
671

Bench note: what Cp(f) did "C[C@@H](Cn1c(=O)[nH]/c(=N\c2ccc(Oc3nccs3)cc2)n(Cc2ccc(Cl)cc2)c1=O)C(=O)O" show?
319

Recorded Cp(f) for "C[C@@H](Cn1c(=O)[nH]/c(=N\c2ccc(OCC3CC3)cc2)n(Cc2ccc(Cl)cc2)c1=O)C(=O)O" , please?
643

Please look up its Cp(f): "CC(C)Oc1ccc(Nc2nc(=O)n(CC(CO)CO)c(=O)n2Cc2ccc(Cl)cc2)cc1Cl"
597

Next:
Tell me the measured Cp(f) of "CC(C)Oc1ccc(/N=c2\[nH]c(=O)n(C[C@H](C)C(=O)O)c(=O)n2Cc2ccc(Cl)cc2)cc1Cl" , please.
1537

Which Cp(f) is listed for "CC(C)Oc1ccc(Nc2nc(=O)n(CCC(=O)O)c(=O)n2Cc2ccc(Cl)cc2)cc1Cl" ?
1267
